Test: Kinetic parameter for rate of conversion to PABA was determined
Format: ADME
measure-name: Km (µM)

{"columns": ["molecule", "measure-name", "numeric-value"],
 "data": [
  ["CC(=O)CC(C)(O)CCOC(=O)Nc1ccc(C(=O)O)cc1 (stereo unspecified)", "Km", 150]
]}

Ref: ChEMBL document CHEMBL1135160
